EXPERIMENTAL_SYSTEM: Pyruvate kinase (Staphylococcus aureus (strain MRSA252))
EXPERIMENT: Inhibition of purified methicillin-resistant Staphylococcus aureus N-terminal His-tagged pyruvate kinase by LDH-coupled continuous assay
ASSAY_CONDITIONS: read-out: IC50
IC50 values for the molecules below.
REPORTED_ENDPOINT: IC50 (µM)

> print(dat)
                       smiles.representation  reported.endpoint  measured
 1    COc1ccc2[nH]cc(CCc3c[nH]c4ccccc34)c2c1               IC50      38.6
 2     Cc1ccc2c(CCc3c[nH]c4ccccc34)c[nH]c2c1               IC50       294
 3   N#Cc1ccc2[nH]cc(CCc3c[nH]c4ccccc34)c2c1               IC50       4.2
 4      c1ccc2c(CCc3c[nH]c4ccccc34)c[nH]c2c1               IC50      57.3
 5  O=[N+]([O-])c1ccc2c(CCc3c[nH]c4ccccc34)c[nH]c2c1               IC50       0.9
 6     Fc1ccc2[nH]cc(CCc3c[nH]c4ccccc34)c2c1               IC50      19.8
 7  Fc1cc(Cl)cc2c(CCc3c[nH]c4ccccc34)c[nH]c12               IC50       4.6
 8  O=[N+]([O-])c1cccc2[nH]cc(CCc3c[nH]c4ccccc34)c12               IC50       5.7
 9  FC(F)(F)c1ccc2[nH]cc(CCc3c[nH]c4ccccc34)c2c1               IC50      13.3
10     Cc1ccc2[nH]cc(CCc3c[nH]c4ccccc34)c2c1               IC50      32.8
11  CCN(C(C)=O)c1ccc2c(CCc3c[nH]c4ccccc34)c[nH]c2c1               IC50       148

----------
EXPERIMENTAL_SYSTEM: Pyruvate kinase PKLR (Homo sapiens, UniProt P30613)
Sequence (P30613 whole entry): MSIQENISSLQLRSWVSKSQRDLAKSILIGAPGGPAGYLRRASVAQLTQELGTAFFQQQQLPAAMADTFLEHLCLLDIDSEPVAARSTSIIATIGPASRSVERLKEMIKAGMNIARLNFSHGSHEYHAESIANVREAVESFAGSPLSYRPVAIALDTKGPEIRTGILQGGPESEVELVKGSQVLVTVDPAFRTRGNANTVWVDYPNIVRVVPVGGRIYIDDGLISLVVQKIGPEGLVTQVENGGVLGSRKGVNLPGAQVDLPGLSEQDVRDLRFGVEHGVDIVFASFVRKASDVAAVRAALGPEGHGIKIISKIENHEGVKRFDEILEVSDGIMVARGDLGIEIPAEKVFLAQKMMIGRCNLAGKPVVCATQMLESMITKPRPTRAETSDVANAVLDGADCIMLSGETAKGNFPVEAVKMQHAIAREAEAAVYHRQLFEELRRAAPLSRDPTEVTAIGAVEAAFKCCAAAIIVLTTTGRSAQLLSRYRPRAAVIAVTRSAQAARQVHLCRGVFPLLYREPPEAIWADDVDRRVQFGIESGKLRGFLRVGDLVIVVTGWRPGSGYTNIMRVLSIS
EXPERIMENT: Inhibition of purified human N-terminal His-tagged PK-R by LDH-coupled continuous assay
REPORTED_ENDPOINT: IC50 (µM)

> print(dat)
                      smiles.representation  units.label  measured
1  O=[N+]([O-])c1ccc2c(CCc3c[nH]c4ccccc34)c[nH]c2c1           µM      18.2

----------
EXPERIMENTAL_SYSTEM: Pyruvate kinase PKM (Homo sapiens)
Sequence (P14618 whole entry): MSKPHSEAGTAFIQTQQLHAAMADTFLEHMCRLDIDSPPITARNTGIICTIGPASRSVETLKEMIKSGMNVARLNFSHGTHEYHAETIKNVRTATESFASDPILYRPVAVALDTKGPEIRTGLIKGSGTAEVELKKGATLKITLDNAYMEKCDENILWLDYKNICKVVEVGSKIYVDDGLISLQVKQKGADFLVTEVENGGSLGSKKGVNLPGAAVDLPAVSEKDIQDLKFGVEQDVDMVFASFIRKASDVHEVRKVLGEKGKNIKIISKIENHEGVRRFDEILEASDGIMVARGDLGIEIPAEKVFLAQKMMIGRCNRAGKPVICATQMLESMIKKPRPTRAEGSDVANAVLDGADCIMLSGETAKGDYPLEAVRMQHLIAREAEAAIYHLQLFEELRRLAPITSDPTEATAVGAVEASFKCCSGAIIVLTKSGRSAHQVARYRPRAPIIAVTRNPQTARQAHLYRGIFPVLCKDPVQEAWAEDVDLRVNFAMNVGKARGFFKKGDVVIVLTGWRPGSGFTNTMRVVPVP
EXPERIMENT: Inhibition of purified human N-terminal His-tagged PK-M1 by LDH-coupled continuous assay
pIC50: −log10 of the molar value.
REPORTED_ENDPOINT: pIC50

> print(dat)
                      smiles.representation  reported.endpoint  measured
1  O=[N+]([O-])c1ccc2c(CCc3c[nH]c4ccccc34)c[nH]c2c1              pIC50      4.02

----------
EXPERIMENTAL_SYSTEM: Pyruvate kinase (Staphylococcus aureus (strain MRSA252), UniProt Q6GG09)
Sequence (Q6GG09 whole entry): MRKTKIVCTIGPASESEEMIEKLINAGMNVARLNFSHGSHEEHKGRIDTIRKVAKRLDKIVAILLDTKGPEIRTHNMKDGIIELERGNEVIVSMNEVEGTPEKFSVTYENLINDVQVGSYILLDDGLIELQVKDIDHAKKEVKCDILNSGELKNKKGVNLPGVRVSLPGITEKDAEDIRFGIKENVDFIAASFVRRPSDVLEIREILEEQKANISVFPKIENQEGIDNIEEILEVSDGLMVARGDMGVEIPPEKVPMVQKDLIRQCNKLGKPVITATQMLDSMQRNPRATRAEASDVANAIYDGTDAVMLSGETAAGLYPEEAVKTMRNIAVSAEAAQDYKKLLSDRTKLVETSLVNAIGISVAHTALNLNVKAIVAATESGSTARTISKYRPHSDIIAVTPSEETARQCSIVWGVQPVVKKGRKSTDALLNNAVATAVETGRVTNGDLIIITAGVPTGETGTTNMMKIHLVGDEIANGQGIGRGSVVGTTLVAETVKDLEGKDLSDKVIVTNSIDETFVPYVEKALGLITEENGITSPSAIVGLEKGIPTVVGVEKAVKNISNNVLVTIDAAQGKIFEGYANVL
EXPERIMENT: Inhibition of purified methicillin-resistant Staphylococcus aureus N-terminal His-tagged pyruvate kinase by LDH-coupled continuous assay
ASSAY_CONDITIONS: read-out: IC50
pIC50: −log10 of the molar value.
REPORTED_ENDPOINT: pIC50

> print(dat)
                      smiles.representation                       experimental.system  measured
1    Clc1ccc2[nH]cc(CCc3c[nH]c4ccccc34)c2c1  Pyruvate kinase (Staphylococcus aureus (strain MRSA252), UniProt Q6GG09)      4.90
2    Clc1ccc2c(CCc3c[nH]c4ccccc34)c[nH]c2c1  Pyruvate kinase (Staphylococcus aureus (strain MRSA252), UniProt Q6GG09)      3.57
3  O=C(C(=O)c1c[nH]c2ccccc12)c1c[nH]c2ccccc12  Pyruvate kinase (Staphylococcus aureus (strain MRSA252), UniProt Q6GG09)      4.30
